- System Under Test: Melanocyte-stimulating hormone receptor (Mus musculus, UniProt Q01727)
- Sequence (Q01727 whole entry): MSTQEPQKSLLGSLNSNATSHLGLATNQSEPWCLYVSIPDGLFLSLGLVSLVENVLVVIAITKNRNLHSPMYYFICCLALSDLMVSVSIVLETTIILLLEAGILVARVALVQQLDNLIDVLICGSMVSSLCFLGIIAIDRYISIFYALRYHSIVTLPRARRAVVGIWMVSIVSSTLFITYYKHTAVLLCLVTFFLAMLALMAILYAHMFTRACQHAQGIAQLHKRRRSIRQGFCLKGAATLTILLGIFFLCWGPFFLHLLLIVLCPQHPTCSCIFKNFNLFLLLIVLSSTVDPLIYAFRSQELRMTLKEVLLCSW
- Measurement Description: Maximal agonist response of mouse melanocortin 1 receptor (MC1R)
- Type: functional
Readout: pEC50
API: returns pEC50 as number; meaning -log10 of concentration in mol/L.

[[record]]
smiles_structure = "C[C@@H](O)[C@H](NC(=O)[C@H]1CSSC[C@H](NC(=O)[C@H](N)Cc2ccccc2)C(=O)N[C@@H](Cc2c[nH]cn2)C(=O)N[C@@H](Cc2ccccc2)C(=O)N[C@@H](CCCN=C(N)N)C(=O)N[C@H](Cc2c[nH]c3ccccc23)C(=O)N1)C(N)=O"
assay_value = 8.82


Please turn your attention to the following entry.
pEC50 in this record for `C[C@@H](O)[C@H](NC(=O)[C@H]1CSSC(C)(C)[C@H](NC(=O)[C@H](N)Cc2ccccc2)C(=O)N[C@@H](Cc2c[nH]cn2)C(=O)N[C@@H](Cc2ccccc2)C(=O)N[C@@H](CCCN)C(=O)N[C@H](Cc2c[nH]c3ccccc23)C(=O)N1)C(N)=O` : 6.31
